Data provenance is ChEMBL document CHEMBL1143862.

# assay-details: Biodistribution in rat brain at 10 mg/kg, po after 8 hrs
# Type: ADME, organism-based
# Set-up: dose 10 mg/kg, route oral
# run-parameters: read-out: Drug uptake
Numbered stars: 1 amine (or outer) side, 2 acyl side, 3 side chain; on linkers, the order of the positions; unused ones are H or OH. Bridge positions count the residues as written; N and C are the ends. Square brackets hold non-standard residues; d marks the D form. Peptide text beside a SMILES is read from it. N(2-Aminoethyl)Gly = O=C(CN(CCN[*:3])[*:1])[*:2]; Suc = O=C(CCC(=O)[*:2])[*:1]
readout-kind: concentration at 8 h (ng/g)
The figure you give is taken to be in ng/g; do not add the unit.

Lookup: What value of concentration at 8 h has been reported for the following molecule? N=C(N)NCCC[C@@H]1NC(=O)[C@@H](Cc2ccccc2)NC(=O)[C@H](Cc2ccccc2)NC(=O)CCC(=O)NCCN(CC(N)=O)C(=O)[C@H](Cc2c[nH]c3ccccc23)NC1=O (F[dF]RW[N(2-Aminoethyl)Gly]-NH2; linker N-5 via Suc)
Found: 4700

###

Overview of recorded pEC50 for various compounds
# target-desc: Melanocortin receptor 3 (Mus musculus, UniProt P33033)
# Sequence (P33033 whole entry): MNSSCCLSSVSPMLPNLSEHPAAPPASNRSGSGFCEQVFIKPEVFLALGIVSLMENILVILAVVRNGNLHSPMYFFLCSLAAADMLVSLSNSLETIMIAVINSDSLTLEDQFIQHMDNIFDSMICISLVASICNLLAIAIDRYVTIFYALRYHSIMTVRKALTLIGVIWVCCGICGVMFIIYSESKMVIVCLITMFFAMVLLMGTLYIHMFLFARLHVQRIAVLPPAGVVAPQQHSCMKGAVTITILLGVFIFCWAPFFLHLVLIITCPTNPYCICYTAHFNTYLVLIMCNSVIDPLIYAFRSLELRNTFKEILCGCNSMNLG
# assay-details: Agonist activity at mouse MC3R expressed in HEK293 cells
Numbered stars: 1 amine (or outer) side, 2 acyl side, 3 side chain; on linkers, the order of the positions; unused ones are H or OH. Bridge positions count the residues as written; N and C are the ends. Square brackets hold non-standard residues; d marks the D form. Peptide text beside a SMILES is read from it. NGly(3-aminopropyl) = O=C(CN(CCCN[*:3])[*:1])[*:2]; Adipoyl = O=C(CCCCC(=O)[*:2])[*:1]
Please keep in mind that pEC50 is minus log10 of the molar concentration; only the number is needed.

N=C(N)NCCC[C@@H]1NC(=O)[C@@H](Cc2ccccc2)NC(=O)[C@H](Cc2ccccc2)NC(=O)CCCCC(=O)NCCCN(CC(N)=O)C(=O)[C@H](Cc2c[nH]c3ccccc23)NC1=O (F[dF]RW[NGly(3-aminopropyl)]-NH2; linker N-5 via Adipoyl) :: 5.11

Continue with the next compound.
Lookup: What value of pEC50 has been reported for the following compound? N=C(N)NCCC[C@@H]1NC(=O)[C@@H](Cc2ccccc2)NC(=O)[C@H](Cc2ccccc2)NC(=O)CCCC(=O)NCCN(CC(N)=O)C(=O)[C@H](Cc2c[nH]c3ccccc23)NC1=O
Found: 5.84

###

# assay-details: Cmax in Wistar rat plasma at 10 mg/kg, po
# Type: ADME, organism-based
# Design: dose 10 mg/kg, route oral
Numbered stars: 1 amine (or outer) side, 2 acyl side, 3 side chain; on linkers, the order of the positions; unused ones are H or OH. Bridge positions count the residues as written; N and C are the ends. Square brackets hold non-standard residues; d marks the D form. Peptide text beside a SMILES is read from it. N(2-Aminoethyl)Gly = O=C(CN(CCN[*:3])[*:1])[*:2]; Suc = O=C(CCC(=O)[*:2])[*:1]
readout-kind: Cmax (ng/mL)
The figure you give is taken to be in ng/mL; do not add the unit.

Lookup: What value of Cmax has been reported for the following compound? N=C(N)NCCC[C@@H]1NC(=O)[C@@H](Cc2ccccc2)NC(=O)[C@H](Cc2ccccc2)NC(=O)CCC(=O)NCCN(CC(N)=O)C(=O)[C@H](Cc2c[nH]c3ccccc23)NC1=O (F[dF]RW[N(2-Aminoethyl)Gly]-NH2; linker N-5 via Suc)
Found: 202
